- Test system: MM.1S myeloma cells
- ASSAY SUMMARY: Cell proliferation inhibition test by MTS assay
- Format: cell-based
- CONDITION LABEL: Homo sapiens, MM1.S, 72 hours drug treatment, 15,000 cells/well, 96-well plate
Threshold 0.2 nM. IC50 below it: satisfied. IC50 at it or above: not satisfied.

Q) # TODO verify IC50 < 0.2 nM strictly for this compound: `O=C1CC[C@H](N2Cc3c(OCc4ccc(CN5CCN(c6ccc(C(F)(F)F)c(F)c6)CC5)cc4F)cccc3C2=O)C(=O)N1`
A) satisfied

Q) Repeat for the following compound: `N#Cc1ccc(N2CCN(Cc3ccc(COc4cccc5c4CN([C@H]4CCC(=O)NC4=O)C5=O)c(F)c3)CC2)cc1C(F)(F)F`
A) satisfied

Q) Repeat for the following compound: `N#Cc1ncc(N2CCN(Cc3ccc(COc4cccc5c4CN([C@H]4CCC(=O)NC4=O)C5=O)cc3F)CC2)cc1C(F)(F)F`
A) satisfied

Q) Repeat for the following compound: `CCOc1cc(C#N)ccc1N1CCN(Cc2ccc(COc3cccc4c3CN([C@H]3CCC(=O)NC3=O)C4=O)c(F)c2)CC1`
A) satisfied

Q) Repeat for the following compound: `C#Cc1ccc(N2CCN(Cc3ccc(COc4cccc5c4CN([C@H]4CCC(=O)NC4=O)C5=O)c(F)c3)CC2)c(F)c1`
A) not satisfied

Q) Repeat for the following compound: `N#Cc1ccc(N2CCN(Cc3ccc(COc4cccc5c4CN([C@H]4CCC(=O)NC4=O)C5=O)c(F)c3)CC2)c(Cl)c1`
A) satisfied

Q) Repeat for the following compound: Nc1cccc2c1CN(C1CCC(=O)NC1=O)C2=O (stereo not shown) [Control 1, reference compound]
A) not satisfied

----------
- Test system: MM.1S myeloma cells
- ASSAY SUMMARY: Cell proliferation inhibition test by MTS assay
- Type: cell-based
- CONDITION LABEL: Homo sapiens, MM1.S, 72 hours drug treatment, 15,000 cells/well, 96-well plate
Threshold 0.1 nM. IC50 below it: condition met. IC50 at it or above: condition not met.

Q) # TODO verify IC50 < 0.1 nM strictly for this compound: `CCOc1nc(N2CCN(Cc3ccc(COc4cccc5c4CN([C@H]4CCC(=O)NC4=O)C5=O)cc3F)CC2)ccc1OC`
A) condition not met

Q) Repeat for the following compound: `N#Cc1ccc(N2CCN(Cc3ccc(COc4cccc5c4CN([C@H]4CCC(=O)NC4=O)C5=O)c(F)c3)CC2)cc1F`
A) condition met

Q) Repeat for the following compound: `COc1cc(N2CCN(Cc3ccc(COc4cccc5c4CN([C@H]4CCC(=O)NC4=O)C5=O)cc3F)CC2)ccc1C#N`
A) condition met

Q) Repeat for the following compound: `NC(=O)c1ccc(N2CCN(Cc3ccc(COc4cccc5c4CN([C@H]4CCC(=O)NC4=O)C5=O)c(F)c3)CC2)cc1F`
A) condition met

Q) Repeat for the following compound: `N#Cc1ccc(N2CCN(Cc3ccc(COc4cccc5c4CN([C@H]4CCC(=O)NC4=O)C5=O)c(F)c3)CC2)c(F)c1`
A) condition met

Q) Repeat for the following compound: N#Cc1ccc(N2CCN(Cc3ccc(COc4cccc5c4CN(C4CCC(=O)NC4=O)C5=O)c(F)c3)CC2)nc1 (stereo not shown)
A) condition not met

Q) Repeat for the following compound: `N#Cc1ccc(N2CCN(Cc3ccc(COc4cccc5c4CN([C@H]4CCC(=O)NC4=O)C5=O)c(F)c3)CC2)c(C(N)=O)c1`
A) condition met

Q) Repeat for the following compound: `N#Cc1ccc(N2CCN(Cc3ccc(COc4cccc5c4CN([C@H]4CCC(=O)NC4=O)C5=O)c(F)c3)CC2)c(C#N)c1`
A) condition not met

Q) Repeat for the following compound: `N#Cc1ccc(N2CCN(Cc3ccc(COc4cccc5c4CN([C@H]4CCC(=O)NC4=O)C5=O)cc3F)CC2)cc1F`
A) condition met

Q) Repeat for the following compound: `CCc1cc(C#N)ccc1N1CCN(Cc2ccc(COc3cccc4c3CN([C@H]3CCC(=O)NC3=O)C4=O)c(F)c2)CC1`
A) condition met

Q) Repeat for the following compound: `COc1cc(N2CCN(Cc3ccc(COc4cccc5c4CN([C@H]4CCC(=O)NC4=O)C5=O)c(F)c3)CC2)ccc1C#N`
A) condition met

Q) Repeat for the following compound: `N#Cc1ccc(N2CCN(Cc3ccc(COc4cccc5c4CN([C@H]4CCC(=O)NC4=O)C5=O)c(F)c3)CC2)cc1C1CC1`
A) condition not met

Q) Repeat for the following compound: `O=C1CC[C@H](N2Cc3c(OCc4ccc(CN5CCN(c6ccc([N+](=O)[O-])cc6F)CC5)cc4F)cccc3C2=O)C(=O)N1`
A) condition met

Q) Repeat for the following compound: `N#Cc1ccc(N2CCN(Cc3ccc(COc4cccc5c4CN([C@H]4CCC(=O)NC4=O)C5=O)c(F)c3)CC2)cc1Cl`
A) condition met

----------
- System: MM.1S myeloma cells
- ASSAY SUMMARY: Cell proliferation inhibition test by MTS assay
- Assay type: cell-based
- CONDITION LABEL: Homo sapiens, MM1.S, 72 hours drug treatment, 15,000 cells/well, 96-well plate
Would you kindly list log10 of IC50 for each of these molecules?
Each number you see is log10 of IC50, and the unit inside the log is nM.

Q) # log10 of IC50 lookup, item `N#Cc1ccc(N2CCN(Cc3ccc(COc4cccc5c4CN([C@H]4CCC(=O)NC4=O)C5=O)c(F)c3)CC2)c(C(F)(F)F)c1`
A) -1.68

Q) Repeat for the following molecule: `C=Cc1ccc(N2CCN(Cc3ccc(COc4cccc5c4CN([C@H]4CCC(=O)NC4=O)C5=O)c(F)c3)CC2)c(F)c1`
A) 0.08

Q) Repeat for the following molecule: `NC(=O)c1ccc(N2CCN(Cc3ccc(COc4cccc5c4CN([C@H]4CCC(=O)NC4=O)C5=O)c(F)c3)CC2)c(F)c1`
A) -1.41

Q) Repeat for the following molecule: `CCc1cc(N2CCN(Cc3ccc(COc4cccc5c4CN([C@H]4CCC(=O)NC4=O)C5=O)c(F)c3)CC2)ccc1C#N`
A) -0.94

Q) Repeat for the following molecule: `N#Cc1ccc(N2CCN(Cc3ccc(COc4cccc5c4CN([C@H]4CCC(=O)NC4=O)C5=O)c(F)c3)CC2)cc1OCC1CC1`
A) -1.57

Q) Repeat for the following molecule: `N#Cc1ccc(N2CCN(Cc3ccc(COc4cccc5c4CN([C@H]4CCC(=O)NC4=O)C5=O)cc3F)CC2)c(F)c1`
A) -1.82

Q) Repeat for the following molecule: `CCOc1cc(N2CCN(Cc3ccc(COc4cccc5c4CN([C@H]4CCC(=O)NC4=O)C5=O)c(F)c3)CC2)ccc1C#N`
A) -2.17

Q) Repeat for the following molecule: `[2H]C([2H])([2H])Oc1cc(N2CCN(Cc3ccc(COc4cccc5c4CN([C@H]4CCC(=O)NC4=O)C5=O)c(F)c3)CC2)ccc1C#N`
A) -2.21

Q) Repeat for the following molecule: `N#Cc1ccc(N2CCN(Cc3ccc(COc4cccc5c4CN([C@H]4CCC(=O)NC4=O)C5=O)c(F)c3)CC2)c(O)c1`
A) -0.42

Q) Repeat for the following molecule: `N#Cc1ccc(N2CCN(Cc3ccc(COc4cccc5c4CN([C@H]4CCC(=O)NC4=O)C5=O)c(F)c3)CC2)cc1`
A) -1.98

Q) Repeat for the following molecule: `COc1cc(C#N)ccc1N1CCN(Cc2ccc(COc3cccc4c3CN([C@H]3CCC(=O)NC3=O)C4=O)c(F)c2)CC1`
A) -0.87

Q) Repeat for the following molecule: `NC(=O)c1ccc(N2CCN(Cc3ccc(COc4cccc5c4CN([C@H]4CCC(=O)NC4=O)C5=O)cc3F)CC2)c(F)c1`
A) -1.24

Q) Repeat for the following molecule: `Cc1cc(N2CCN(Cc3ccc(COc4cccc5c4CN([C@H]4CCC(=O)NC4=O)C5=O)c(F)c3)CC2)ccc1C#N`
A) -2.04

Q) Repeat for the following molecule: `CNC(=O)c1cc(C#N)ccc1N1CCN(Cc2ccc(COc3cccc4c3CN([C@H]3CCC(=O)NC3=O)C4=O)c(F)c2)CC1`
A) -1.12
